- test details: Chemical stability (relative purity loss) of peptide compounds in buffer formulations (Table 6)
- Type: physicochemical
- condition summary: 50 mm hcl + acetonitrile, Buffer pH 1.1 (head; method: 50 mM HCl pH 1.2 + acetonitrile 3:1), 2° C. and 37° C., read-out: Chemical stability (relative purity loss), Buffer pH 1.1
Numbered stars: 1 amine (or outer) side, 2 acyl side, 3 side chain; on linkers, the order of the positions; unused ones are H or OH. Bridge positions count the residues as written; N and C are the ends. Square brackets hold non-standard residues; d marks the D form. Peptide text beside a SMILES is read from it. * marks the point of attachment. Lys(Me,(CH2)4NMe(CH2)5CO) = CN(CCCCCC(=O)[*:3])CCCCN(C)CCCC[C@H](N[*:1])C(=O)[*:2]; Lys(Me,(CH2)4NMe(CH2)4CO) = CN(CCCCC(=O)[*:3])CCCCN(C)CCCC[C@H](N[*:1])C(=O)[*:2]; Trp(7-Me) = Cc1cccc2c(C[C@H](N)C(=O)O)c[nH]c12; αMeLys(Me2) = CN(C)CCCC[C@](C)(N)C(=O)O; NH(CH2)9CO = O=C(CCCCCCCCCN[*:1])[*:2]; 2Nal = N[C@@H](Cc1ccc2ccccc2c1)C(=O)O; 3Pal = N[C@@H](Cc1cccnc1)C(=O)O; Aun = NCCCCCCCCCCC(=O)O; Thp = NC1(C(=O)O)CCOCC1; Me2NCH2CH2 = CN(C)CC*; Aib = CC(C)(N)C(=O)O; Sar = CNCC(=O)O
value type: degraded at 24 h (%)
Reply numerically in %, unit not repeated.

CN(C)CCOc1ccc(C[C@@H]2NC(=O)C3(CCOCC3)NC(=O)[C@H](CCC(N)=O)NC(=O)[C@H](Cc3c[nH]c4ccccc34)NC(=O)CCCCN(C)CCCCN(C)CCCC[C@@H](C(=O)N[C@@H](CO)C(=O)N[C@@H](Cc3cccnc3)C(=O)N(C)CC(N)=O)NC(=O)C3(CCOCC3)NC(=O)[C@H](Cc3ccc4ccccc4c3)NC2=O)cc1 [compound 43] (WQ[Thp]Y(Me2NCH2CH2)[2Nal][Thp][Lys(Me,(CH2)4NMe(CH2)4CO)]S[3Pal][Sar]-NH2; lactam N-7)
5.2
Cc1cccc2c(C[C@@H]3NC(=O)CCCCCN(C)CCCCN(C)CCCC[C@@H](C(=O)N[C@@H](CC(N)=O)C(=O)N[C@@H](Cc4cccnc4)C(=O)N(C)CC(N)=O)NC(=O)C(C)(C)NC(=O)[C@H](Cc4ccc5ccccc5c4)NC(=O)[C@H](Cc4ccc(OCCN(C)C)cc4)NC(=O)C4(CCOCC4)NC(=O)[C@H](CCC(N)=O)NC3=O)c[nH]c12 [compound 31] ([Trp(7-Me)]Q[Thp]Y(Me2NCH2CH2)[2Nal][Aib][Lys(Me,(CH2)4NMe(CH2)5CO)]N[3Pal][Sar]-NH2; lactam N-7)
6
Cc1cccc2c(C[C@@H]3NC(=O)CCCCCCCCCNC(=O)CC[C@@H](C(=O)N[C@@H](CC(N)=O)C(=O)N[C@@H](Cc4cccnc4)C(=O)N(C)CC(N)=O)NC(=O)C(C)(C)NC(=O)[C@H](Cc4ccc5ccccc5c4)NC(=O)[C@H](Cc4ccc(OCCN(C)C)cc4)NC(=O)C4(CCOCC4)NC(=O)[C@H](CC(C)C)NC3=O)c[nH]c12 [compound 8] ([NH(CH2)9CO][Trp(7-Me)]L[Thp]Y(Me2NCH2CH2)[2Nal][Aib]EN[3Pal][Sar]-NH2; lactam N-8)
6.2
CC(=O)NCCCC[C@@H]1NC(=O)[C@H](Cc2c[nH]c3c(C)cccc23)NC(=O)CCCCCN(C)CCCCN(C)CCCC[C@@H](C(=O)N[C@@H](CC(N)=O)C(=O)N[C@@H](Cc2cccnc2)C(=O)N(C)CC(N)=O)NC(=O)[C@](C)(CCCCN(C)C)NC(=O)[C@H](Cc2ccc3ccccc3c2)NC(=O)[C@H](Cc2ccc(OCCN(C)C)cc2)NC(=O)C2(CCOCC2)NC1=O [compound 34] ([Trp(7-Me)]K(Ac)[Thp]Y(Me2NCH2CH2)[2Nal][αMeLys(Me2)][Lys(Me,(CH2)4NMe(CH2)5CO)]N[3Pal][Sar]-NH2; lactam N-7)
0

Please look at the following molecule next.
Bench note: what degraded at 24 h did Cc1cccc2c(C[C@@H]3NC(=O)CCCCCCCCCCNC(=O)CC[C@@H](C(=O)N[C@@H](CC(N)=O)C(=O)N[C@@H](Cc4cccnc4)C(=O)N(C)CC(N)=O)NC(=O)C(C)(C)NC(=O)[C@H](Cc4ccc5ccccc5c4)NC(=O)[C@H](Cc4ccc(OCCN(C)C)cc4)NC(=O)C(C)(C)NC(=O)[C@H](CCC(N)=O)NC3=O)c[nH]c12 [compound 35] ([Aun][Trp(7-Me)]Q[Aib]Y(Me2NCH2CH2)[2Nal][Aib]EN[3Pal][Sar]-NH2; lactam N-8) show?
7.4
